Source of measurements: the supplement of paper PMC10627819

tested on: B. subtilis 168; assay: Bliss interaction score (quartile over a dose matrix) (fitness difference); higher = more antagonism (negative = synergy)
// values below are reported Bliss interaction score
Just the number, please, no unit after it.

[
  {
    "compound": "CO/N=C(\\C(=O)N[C@@H]1C(=O)N2C(C(=O)[O-])=C(C[N+]3(C)CCCC3)CS[C@H]12)c1csc(N)n1 [Cefepime] + CC[C@H]1OC(=O)[C@H](C)[C@@H](O[C@H]2C[C@@](C)(OC)[C@@H](O)[C@H](C)O2)[C@H](C)[C@@H](O[C@@H]2O[C@H](C)C[C@H](N(C)C)[C@H]2O)[C@](C)(O)C[C@@H](C)C(=O)[C@H](C)[C@@H](O)[C@]1(C)O [Erythromycin]",
    "measurement_target": "B. subtilis 168",
    "Bliss interaction score": 0.0672
  }
]

Problem: Entry under review: CCN(CC)CCOC(=O)c1ccc(N)cc1 [Procaine] + CC1=C\[C@@H](O)CC(=O)Cc2nc(co2)C(=O)N2CCC=C2C(=O)O[C@H](C(C)C)[C@H](C)/C=C/C(=O)NC\C=C\1 [Virginiamycin M1] . Reported Bliss interaction score?
Result: -0.0324

----------
tested on: S. aureus DSM 20231; experiment: fitness (endpoint OD595 vs no drug) (fraction); higher = more growth; details: first compound 0.125 µg/mL; partner 0.25 µg/mL;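 further: OD595 on entry to stationary phase over no-drug wells; at most 1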
observed_property: fitness

Problem: Entry under review: CC1(C)S[C@@H]2[C@H](NC(=O)[C@H](N)c3ccc(O)cc3)C(=O)N2[C@H]1C(=O)O [Amoxicillin] + CO/N=C(\C(=O)N[C@@H]1C(=O)N2C(C(=O)[O-])=C(C[N+]3(C)CCCC3)CS[C@H]12)c1csc(N)n1 [Cefepime] . Reported fitness?
Result: 0.477

Problem: Try the compound CCCCCCCCCC(=O)N[C@@H](Cc1c[nH]c2ccccc12)C(=O)N[C@H](CC(N)=O)C(=O)N[C@@H](CC(=O)O)C(=O)N[C@@H]1C(=O)NCC(=O)N[C@@H](CCCN)C(=O)N[C@@H](CC(=O)O)C(=O)N[C@H](C)C(=O)N[C@@H](CC(=O)O)C(=O)NCC(=O)N[C@H](CO)C(=O)N[C@@H]([C@H](C)CC(=O)O)C(=O)N[C@@H](CC(=O)c2ccccc2N)C(=O)O[C@@H]1C [Daptomycin] + CC1=C\[C@@H](O)CC(=O)Cc2nc(co2)C(=O)N2CCC=C2C(=O)O[C@H](C(C)C)[C@H](C)/C=C/C(=O)NC\C=C\1 [Virginiamycin M1]
Result: 0.944

----------
system: S. aureus Newman; test: Bliss interaction score (quartile over a dose matrix) (fitness difference); higher = more antagonism (negative = synergy)
Assign 1 to entries whose Bliss interaction score meets or exceeds -0.07; assign -1 to the rest.

Previously resolved entries follow.
[
  {
    "compound": "CCCCCCCCCC(=O)N[C@@H](Cc1c[nH]c2ccccc12)C(=O)N[C@H](CC(N)=O)C(=O)N[C@@H](CC(=O)O)C(=O)N[C@@H]1C(=O)NCC(=O)N[C@@H](CCCN)C(=O)N[C@@H](CC(=O)O)C(=O)N[C@H](C)C(=O)N[C@@H](CC(=O)O)C(=O)NCC(=O)N[C@H](CO)C(=O)N[C@@H]([C@H](C)CC(=O)O)C(=O)N[C@@H](CC(=O)c2ccccc2N)C(=O)O[C@@H]1C [Daptomycin] + Cn1nnc(-c2ccc(-c3ccc(N4C[C@H](CO)OC4=O)cc3F)cn2)n1 [Tedizolid]",
    "discrete_label": 1
  },
  {
    "compound": "C[C@H]1COc2c(N3CCN(C)CC3)c(F)cc3c(=O)c(C(=O)O)cn1c23 [Levofloxacin] + COc1ccc(C[C@H](N)C(=O)N[C@H]2[C@@H](O)[C@H](n3cnc4c(N(C)C)ncnc43)O[C@@H]2CO)cc1 [Puromycin]",
    "discrete_label": -1
  },
  {
    "compound": "CO/N=C(\\C(=O)N[C@@H]1C(=O)N2C(C(=O)[O-])=C(C[N+]3(C)CCCC3)CS[C@H]12)c1csc(N)n1 [Cefepime] + COc1ccc(C[C@H](N)C(=O)N[C@H]2[C@@H](O)[C@H](n3cnc4c(N(C)C)ncnc43)O[C@@H]2CO)cc1 [Puromycin]",
    "discrete_label": -1
  }
]

Problem: Could you verify whether the entry CCCCCCCCCC(=O)N[C@@H](Cc1c[nH]c2ccccc12)C(=O)N[C@H](CC(N)=O)C(=O)N[C@@H](CC(=O)O)C(=O)N[C@@H]1C(=O)NCC(=O)N[C@@H](CCCN)C(=O)N[C@@H](CC(=O)O)C(=O)N[C@H](C)C(=O)N[C@@H](CC(=O)O)C(=O)NCC(=O)N[C@H](CO)C(=O)N[C@@H]([C@H](C)CC(=O)O)C(=O)N[C@@H](CC(=O)c2ccccc2N)C(=O)O[C@@H]1C [Daptomycin] + O=C1CN(/N=C/c2ccc([N+](=O)[O-])o2)C(=O)N1 [Nitrofurantoin] shows Bliss interaction score of no less than -0.07?
Result: 1

Problem: Try the compound CC1(C)S[C@@H]2[C@H](NC(=O)[C@H](N)c3ccc(O)cc3)C(=O)N2[C@H]1C(=O)O [Amoxicillin] + C1=CC(=CC(=C1)Cl)NN=C(C#N)C#N [CCCP]
Result: 1

Problem: Try the compound CN(C)C(=O)C(CCN1CCC(O)(c2ccc(Cl)cc2)CC1)(c1ccccc1)c1ccccc1 [Loperamide] + CO[C@@H]1[C@@H](OC(N)=O)[C@@H](O)[C@H](Oc2ccc3c(O)c(NC(=O)c4ccc(O)c(CC=C(C)C)c4)c(=O)oc3c2C)OC1(C)C [Novobiocin]
Result: -1

Problem: Try the compound CC1(C)S[C@@H]2[C@H](NC(=O)[C@H](N)c3ccc(O)cc3)C(=O)N2[C@H]1C(=O)O [Amoxicillin] + CN(C)[C@@H]1C(O)=C(C(N)=O)C(=O)[C@@]2(O)C(O)=C3C(=O)c4c(O)ccc(Cl)c4[C@@](C)(O)[C@H]3C[C@@H]12 [Clortetracycline]
Result: 1
